molecules and their reported IC50
System: H358 cells
Assay: Cell proliferation assay, H358 cells (Cell-titer Glo)
Type: cell-based
Details: Homo sapiens, NCI-H358; inhibiting H358 cells, 96-well ultra-low adsorption plate, 96 h incubation, Cell-titer Glo luminescence

// below: answered molecules
{"substance.smiles": "C=CC(=O)N1CCn2c(nnc2-c2cc(F)c(-c3c(O)cccc3F)c(Cl)c2)C1", "measure.name": "IC50", "result": "1 to 10 µM"}
{"substance.smiles": "C=C(F)C(=O)N1CCn2c(nnc2-c2cc(F)c(-c3c(O)cccc3F)c(Cl)c2)C1", "measure.name": "IC50", "result": "> 10 µM"}
{"substance.smiles": "C=CC(=O)N1CCn2c(nnc2-c2cc(F)c(-c3c(O)c(Cl)cc(Cl)c3F)c(Cl)c2)C1", "measure.name": "IC50", "result": "≤ 1 µM"}
{"substance.smiles": "C=CC(=O)N1CCn2c(nnc2-c2cc(F)c(-c3c(C)ccc4[nH]ncc34)c(Cl)c2)C1", "measure.name": "IC50", "result": "1 to 10 µM"}
{"substance.smiles": "C=CC(=O)N1CCn2c(cnc2-c2cc(F)c(-c3c(O)cccc3F)c(Cl)c2)C1", "measure.name": "IC50", "result": "1 to 10 µM"}

Exercise: Assign IC50 to the following record: `C=CC(=O)N1CCn2c(-c3cc(F)c(-c4c(O)cccc4F)c(Cl)c3)cnc2C1`
Solution: 1 to 10 µM

Exercise: Assign IC50 to the following record: `C=CC(=O)N1CCn2c(nnc2-c2cc(F)c(-c3c(O)ccc(Cl)c3F)c(Cl)c2)C1`
Solution: ≤ 1 µM

Exercise: Assign IC50 to the following record: `C=CC(=O)N1CCn2c(nnc2-c2cc(F)c(-c3c(F)ccc(Cl)c3N)c(Cl)c2)C1`
Solution: > 10 µM
